Tested Target: Human recombinant carboxy-terminal his-tagged LDHA (amino acids 2-332) (Homo sapiens)
Experiment Summary: LDHA enzyme inhibition assay (NADH fluorescence)
Settings: LDHA IC50 (μM), 1 nM LDHA, NADH and pyruvate, stereochemistry of tested sample given
Measurement Kind: IC50 (µM)

Worked examples, 5 compounds total:
Compound: O=C1CC(c2ccsc2)(c2cccc(Sc3ccc(F)cc3)n2)NC(=O)C1Sc1ccccc1Cl (single isomer, unassigned) [Example 198]
IC50 / µM: 0.177

Compound: O=C1CC(c2ccsc2)(c2cccc(NCCC3CC3)n2)NC(=O)C1Sc1ccccc1Cl (single isomer, unassigned) [Example 110]
IC50 / µM: 0.018

Compound: O=C1CC(c2ccsc2)(c2cccc(OCC3CCCO3)n2)NC(=O)C1Sc1ccccc1Cl (single isomer, unassigned) [Example 239]
IC50 / µM: 0.015

Compound: O=C1CC(c2ccsc2)(c2cccc(OCCC3CC3)n2)NC(=O)C1Sc1ccccc1Cl (stereo not shown)
IC50 / µM: 0.229

Compound: O=C1CC(c2ccsc2)(c2cccc(Oc3cccc(C(F)(F)F)c3)n2)NC(=O)C1Sc1ccccc1Cl (stereo not shown) [Example 153]
IC50 / µM: 0.012

1 = O=C1CC(c2ccsc2)(c2cccc(OCC3COC3)n2)NC(=O)C1Sc1ccccc1Cl (single isomer, unassigned) [Example 199]
2 = O=C1CC(c2ccc(N3CCOCC3)cc2)(c2cccc(Oc3ccc(F)c(F)c3)n2)NC(=O)C1Sc1ccccc1Cl (stereo not shown)
3 = O=C1CC(c2ccsc2)(c2cccc(OCC3CCCO3)n2)NC(=O)C1Sc1ccccc1Cl (single isomer, unassigned) [Example 238]
4 = O=C1CC(c2ccsc2)(c2cccc(Cc3ccc(F)c(F)c3)n2)NC(=O)C1Sc1ccccc1Cl (single isomer, unassigned) [Example 281]
5 = COCCOc1ccc(C2(c3ccsc3)CC(=O)C(Sc3ccccc3Cl)C(=O)N2)cc1 (stereo not shown)
# sort list by recorded IC50, greatest to least // format: requested-order list of labels
4, 5, 2, 3, 1

a = O=C1CC(c2ccsc2)(c2cccc(Oc3ccc(F)c(Br)c3)n2)NC(=O)C1Sc1ccccc1Cl (single isomer, unassigned) [Example 143]
b = O=C1CC(c2ccsc2)(c2cccc(OCCC3CCC3)n2)NC(=O)C1Sc1ccccc1Cl (single isomer, unassigned) [Example 132]
Quick one: lower IC50, a or b ? Selection: enter the item's label.
b

* * *

Tested Target: Human recombinant carboxy-terminal his-tagged LDHA (amino acids 2-332) (Homo sapiens, UniProt P00338)
Experiment Summary: LDHA enzyme inhibition assay (NADH fluorescence)
Settings: LDHA IC50 (μM), 1 nM LDHA, NADH and pyruvate, stereochemistry of tested sample given
Measurement Kind: IC50 (µM)

1 = O=C1CC(c2ccsc2)(c2cccc(Oc3cccc4ccncc34)n2)NC(=O)C1Sc1ccccc1Cl (centres unmarked)
2 = O=C1CC(c2ccsc2)(c2cccc(OCC3CCCC3)n2)NC(=O)C1Sc1ccccc1Cl (single isomer, unassigned) [Example 194]
3 = Cn1cnc(Nc2cccc(C3(c4ccsc4)CC(=O)C(Sc4ccccc4Cl)C(=O)N3)n2)n1 (centres unmarked)
Please put the entries in order of rising IC50. // format: requested-order list of labels
2, 1, 3
(2: 0.005 µM, 1: 0.018 µM, 3: 0.355 µM)

P = O=C1CC(c2ccsc2)(c2cccc(Oc3cccc(F)c3)n2)NC(=O)C1Sc1ccccc1Cl (single isomer, unassigned) [Example 47]
Q = O=C1CC(c2ccc(N3CCC(F)(F)CC3)cc2)(c2ccsc2)NC(=O)C1Sc1ccccc1Cl (centres unmarked)
R = O=C1CC(c2ccsc2)(c2cccc(NCCC3CC3)n2)NC(=O)C1Sc1ccccc1Cl (centres unmarked) [Example 131]
S = O=C1CC(c2ccsc2)(c2cccc(N3CCc4ccc(CO)cc43)n2)NC(=O)C1Sc1ccccc1Cl (centres unmarked)
T = O=C1C[C@](c2ccc(N3CCOCC3)cc2)(c2cccc(Oc3ccc(F)c(F)c3)n2)NC(=O)C1Sc1ccccc1Cl (some centres unmarked)
Ascending by IC50, please: list the molecules accordingly. // format: requested-order list of labels
T, S, Q, R, P

I = CC(C)(C)OCCOc1cccc(C2(c3ccsc3)CC(=O)C(Sc3ccccc3Cl)C(=O)N2)n1 (centres unmarked)
II = O=C(NCC1CC1)c1cccc(C2(c3ccsc3)CC(=O)C(Sc3ccccc3Cl)C(=O)N2)n1 (centres unmarked)
Endpoint returns whichever of I and II has the numerically higher IC50. Selection: enter the item's label.
I
(I: 0.022 µM, II: 0.004 µM)

1 = O=C1CC(c2ccsc2)(c2ccc(N3CCOCC3)c(Oc3ccc(F)cc3)n2)NC(=O)C1Sc1ccccc1Cl (centres unmarked)
2 = O=C1CC(c2ccsc2)(c2cccc(OCC3COC3)n2)NC(=O)C1Sc1ccccc1Cl (single isomer, unassigned) [Example 236]
3 = O=C1CC(c2ccsc2)(c2cccc(OCC3CC3)n2)NC(=O)C1Sc1ccccc1Cl (single isomer, unassigned) [Example 93]
Ascending by IC50, please: list the molecules accordingly. // format: requested-order list of labels
2, 1, 3

* * *

Tested Target: Human recombinant carboxy-terminal his-tagged LDHA (amino acids 2-332) (Homo sapiens, UniProt P00338)
Experiment Summary: LDHA enzyme inhibition assay (NADH fluorescence)
Settings: LDHA IC50 (μM), 1 nM LDHA, NADH and pyruvate, stereochemistry of tested sample given
Measurement Kind: IC50 (µM)

Worked examples, 5 molecules total:
Molecule: O=C1CCC(COc2cccc(C3(c4ccsc4)CC(=O)C(Sc4ccccc4Cl)C(=O)N3)n2)O1 (single isomer, unassigned) [Example 192]
IC50 [µM]: 0.232

Molecule: COc1cc(F)cc(Cc2cccc(C3(c4ccsc4)CC(=O)C(Sc4ccccc4Cl)C(=O)N3)n2)c1 (single isomer, unassigned) [Example 156]
IC50 [µM]: 0.072

Molecule: O=C1CC(c2ccc(C3=CCCCC3)cc2)(c2ccsc2)NC(=O)C1Sc1ccccc1Cl (stereo not drawn) [Example 8]
IC50 [µM]: 0.004

Molecule: COc1cc(Cc2cccc(C3(c4ccsc4)CC(=O)C(Sc4ccccc4Cl)C(=O)N3)n2)ccc1F (single isomer, unassigned) [Example 283]
IC50 [µM]: 0.037

Molecule: O=C1CC(c2ccsc2)(c2cccc(Oc3cccc(F)c3F)n2)NC(=O)C1Sc1ccccc1Cl (stereo not drawn) [Example 53]
IC50 [µM]: 0.011

I = O=C1CC(c2ccsc2)(c2cccc(Oc3ccc(Cl)cc3)n2)NC(=O)C1Sc1ccccc1Cl (stereo not drawn) [Example 58]
II = O=C1CC(c2ccsc2)(c2cccc(OCC3CCOCC3)n2)NC(=O)C1Sc1ccccc1Cl (single isomer, unassigned) [Example 209]
Endpoint returns whichever of I and II has the numerically higher IC50. Selection: enter the item's label.
I

I = O=C1CC(c2ccsc2)(c2cccc(OCCC3CCCCC3)n2)NC(=O)C1Sc1ccccc1Cl (single isomer, unassigned) [Example 161]
II = O=C1CC(c2ccsc2)(c2cccc(OC3CCCCC3)n2)NC(=O)C1Sc1ccccc1Cl (single isomer, unassigned) [Example 181]
Endpoint returns whichever of I and II has the numerically higher IC50. Selection: enter the item's label.
I

* * *

Tested Target: Human recombinant carboxy-terminal his-tagged LDHA (amino acids 2-332) (Homo sapiens)
Experiment Summary: LDHA enzyme inhibition assay (NADH fluorescence)
Settings: LDHA IC50 (μM), 1 nM LDHA, NADH and pyruvate, stereochemistry of tested sample given
Measurement Kind: IC50 (µM)

Worked examples, 5 compounds total:
Compound: O=C1CC(c2ccsc2)(c2cccc(OCC3CCCC3)n2)NC(=O)C1Sc1ccccc1Cl (single isomer, unassigned) [Example 243]
Measurement Kind: IC50
Value Unit: µM
Result Number: 0.001
//
Compound: CC1(C)OCC(CCOc2cccc(C3(c4ccsc4)CC(=O)C(Sc4ccccc4Cl)C(=O)N3)n2)O1 (stereo not drawn) [Example 211]
Measurement Kind: IC50
Value Unit: µM
Result Number: 0.183
//
Compound: O=C1CC(c2ccsc2)(c2cccc(OCC3CCC3)n2)NC(=O)C1Sc1ccccc1Cl (stereo not drawn)
Measurement Kind: IC50
Value Unit: µM
Result Number: 0.02
//
Compound: CC(C)(O)CCCOc1cccc(C2(c3ccsc3)CC(=O)C(Sc3ccccc3Cl)C(=O)N2)n1 (single isomer, unassigned) [Example 135]
Measurement Kind: IC50
Value Unit: µM
Result Number: 0.04
//
Compound: CN1C(=O)C(Sc2ccccc2Cl)C(=O)CC1(c1ccsc1)c1cccc(OC2CCOCC2)c1 (stereo not drawn)
Measurement Kind: IC50
Value Unit: µM
Result Number: 0.026

1 = O=C1CC(c2ccsc2)(c2cccc(Oc3ccc(F)c(Cl)c3)n2)NC(=O)C1Sc1ccccc1Cl (single isomer, unassigned) [Example 108]
2 = O=C1CC(c2ccsc2)(c2cccc(Sc3ccc(F)cc3)n2)NC(=O)C1Sc1ccccc1Cl (single isomer, unassigned) [Example 213]
3 = CC(COc1cccc(C2(c3ccsc3)CC(=O)C(Sc3ccccc3Cl)C(=O)N2)n1)C1CC1 (stereo not drawn)
4 = O=C1CC(c2ccsc2)(c2cccc(Oc3cncnc3)n2)NC(=O)C1Sc1ccccc1Cl (stereo not drawn)
5 = O=C1CC(c2ccsc2)(c2cccc(OCC3CCC(CO)CC3)n2)NC(=O)C1Sc1ccccc1Cl (single isomer, unassigned) [Example 244]
# sort list by recorded IC50, greatest to least // format: requested-order list of labels
4, 1, 2, 5, 3
(4: 0.201 µM, 1: 0.108 µM, 2: 0.034 µM, 5: 0.023 µM, 3: 0.014 µM)

1 = O=C1CC(c2ccsc2)(c2cccc(OC3CCCCC3)n2)NC(=O)C1Sc1ccccc1Cl (single isomer, unassigned) [Example 157]
2 = CC(C)Oc1nc(C2(c3ccsc3)CC(=O)C(Sc3ccccc3Cl)C(=O)N2)ccc1N1CCOCC1 (stereo not drawn)
Endpoint returns whichever of 1 and 2 has the numerically higher IC50. Selection: enter the item's label.
2
(2: 0.111 µM, 1: 0.03 µM)

P = O=C1CC(c2ccsc2)(c2cccc(Oc3ccccc3Br)n2)NC(=O)C1Sc1ccccc1Cl (single isomer, unassigned) [Example 197]
Q = O=C1CC(c2ccsc2)(c2cccc(Oc3cccc4ncccc34)n2)NC(=O)C1Sc1ccccc1Cl (single isomer, unassigned) [Example 128]
Endpoint returns whichever of P and Q has the numerically higher IC50. Selection: enter the item's label.
Q

The measured values listed here are drawn from patent US20170001990A1.
